target: human orexin 1 receptor (hOx1R) (Homo sapiens); construct: expressed in transfected cells; assay: Calcium accumulation in cells (FLIPR), antagonism of orexin A, hOx1R; assay type: cell-based; details: cells expressing human orexin 1 receptor; IC50 vs orexin A converted by Cheng and Prusoff correction
Sequence (O43613 whole entry): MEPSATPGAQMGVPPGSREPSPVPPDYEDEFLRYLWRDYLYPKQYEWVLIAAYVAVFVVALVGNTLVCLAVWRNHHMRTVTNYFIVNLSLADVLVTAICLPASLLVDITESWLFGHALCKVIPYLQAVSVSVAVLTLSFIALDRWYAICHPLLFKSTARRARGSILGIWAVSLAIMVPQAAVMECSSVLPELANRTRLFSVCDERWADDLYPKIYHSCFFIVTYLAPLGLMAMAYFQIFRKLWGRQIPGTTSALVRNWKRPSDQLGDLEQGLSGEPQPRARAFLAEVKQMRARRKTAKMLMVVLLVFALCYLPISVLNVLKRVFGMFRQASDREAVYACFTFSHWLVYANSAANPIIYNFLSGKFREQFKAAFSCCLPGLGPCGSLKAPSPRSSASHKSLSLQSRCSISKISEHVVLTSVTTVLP
Recorded measurements of Kd, one per entry
Give the value in nM but do not write nM after it.

The examples below pair each entry with its known result.
Cc1nc(C(=O)NCC[C@H](Cc2ccccc2)N(C)C(=O)c2ccccc2)c(-c2ccccc2F)s1 :: 76
COc1cc(OC)cc(C(=O)N(C)[C@H](CCNC(=O)c2ccccn2)Cc2ccccc2)c1 :: 1600
CN(C(=O)c1ccccc1)[C@H](CCNC(=O)c1ccccn1)Cc1ccccc1 :: 836
CN(C(=O)c1ccc2c(c1)OCO2)[C@H](CCNC(=O)c1ccc2c(c1)OCO2)Cc1ccccc1 :: 872
Cc1nc(C(=O)NCC[C@H](Cc2ccccc2)N(C)C(=O)c2ccc3c(c2)OCO3)c(-c2ccccc2F)s1 :: 42
Cc1nc2sccn2c1C(=O)NCC[C@H](Cc1ccccc1)N(C)C(=O)c1ccc2c(c1)OCO2 :: 963

Problem: Reported Kd for "C[C@H](CNC(=O)c1ccccn1)[C@H](Cc1ccccc1)N(C)C(=O)c1ccccc1" : what is it?
Result: 415

Problem: Try the compound "CN(C(=O)c1ccc2c(c1)CCO2)[C@H](CCNC(=O)c1ccccn1)Cc1ccccc1"
Result: 2190

Problem: Try the compound "CN(C(=O)c1ccc2c(c1)OCO2)[C@H](CCNC(=O)c1nc2ccccc2n1C)Cc1ccccc1"
Result: 57

Problem: Try the compound "Cc1cc(C)cc(C(=O)N(C)[C@H](CCNC(=O)c2cccn2C)Cc2ccccc2)c1"
Result: 230

Problem: Try the compound CN(C(=O)c1cc(C(F)(F)F)cc(C(F)(F)F)c1)C(CCNC(=O)c1ccc2c(ccn2C)c1)Cc1ccccc1 (stereo not shown)
Result: 3470

Problem: Try the compound "CN(C(=O)c1cccc2ccccc12)[C@H](CCNC(=O)c1ccccn1)Cc1ccc(Cl)cc1"
Result: 80

Problem: Try the compound "CN(C(=O)c1ccc(Br)cc1)[C@H](CCNC(=O)c1ccccn1)Cc1ccccc1"
Result: 1110

Problem: Try the compound "CN(C(=O)c1cccc(Br)c1)[C@H](CCNC(=O)c1nc2ccccc2n1C)Cc1ccccc1"
Result: 18

Problem: Try the compound "CN(C(=O)c1ccc2c(c1)OCO2)[C@H](CCNC(=O)c1nccn1C)Cc1ccccc1"
Result: 1470

Problem: Try the compound "CN1CCc2cc(C(=O)N(C)[C@H](CCNC(=O)c3ccccn3)Cc3ccccc3)ccc21"
Result: 1640
